Where do the numbers come from? From ChEMBL document CHEMBL3045923.

system: Festuca rubra; experiment: Toxicity against Festuca rubra applied using logarithmic sprayer; assay type: organism-based; settings: in vivo
Listed here: items and their measured ED50.
Respond numerically; units are kg/ha and should not be typed.

Guide cases for ED50, answers given:
C#CCOC(=O)[C@@H](C)Oc1ccc(Oc2ncc(Cl)cc2F)cc1; 0.923
CCOC(=O)[C@@H](C)Oc1ccc(Oc2nc3ccc(Cl)cc3o2)cc1; 1.137
COc1nc(C)nc(NC(=O)NS(=O)(=O)c2cc(I)ccc2C(=O)O)n1; 0.367
CCS(=O)(=O)c1nc2ccccn2c1S(=O)(=O)NC(=O)Nc1nc(OC)cc(OC)n1; 0.007

# context switch: different molecule, same ED50
Ask | Name the reported ED50 value associated with the molecule `COc1cc(OC)nc(NC(=O)NS(=O)(=O)c2nc(C(F)(F)F)ccc2C(=O)O)n1`
Reply | 0.024
